# Lookup of reported Ki keyed by entry
assayed_target: Alpha-1A adrenergic receptor (Homo sapiens)
Sequence (P35348 whole entry): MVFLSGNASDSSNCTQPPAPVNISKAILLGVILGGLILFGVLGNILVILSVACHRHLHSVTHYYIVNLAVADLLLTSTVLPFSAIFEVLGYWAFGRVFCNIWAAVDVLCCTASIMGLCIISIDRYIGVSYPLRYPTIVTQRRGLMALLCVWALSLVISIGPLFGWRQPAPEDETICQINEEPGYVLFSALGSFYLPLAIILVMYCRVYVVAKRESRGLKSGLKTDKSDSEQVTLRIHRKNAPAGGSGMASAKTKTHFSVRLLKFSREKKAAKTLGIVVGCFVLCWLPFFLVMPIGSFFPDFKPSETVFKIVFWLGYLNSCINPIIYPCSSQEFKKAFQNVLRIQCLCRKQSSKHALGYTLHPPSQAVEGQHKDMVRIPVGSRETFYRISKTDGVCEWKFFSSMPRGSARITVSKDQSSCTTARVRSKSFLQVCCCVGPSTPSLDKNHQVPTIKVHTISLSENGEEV
assay_explanation: Binding affinity towards Alpha-1A adrenergic receptor

Some entries whose results are on file:
                                   compound  endpoint_name  reported_result
0  CC(C)(C)c1ccc(N2CCN(CCn3cnc4c5ccccc5nc-4c3O)CC2)cc1             Ki          > 10 µM
1  Cc1nc2c3ccccc3nc-2c(O)n1CCN1CCN2c3ccccc3OCC2C1 (stereo not drawn)             Ki          > 10 µM

API: the following record is the query input.
Q: Report Ki for CC(C)c1ccc(N2CCN(CCn3cnc4c5ccccc5nc-4c3O)CC2)cc1 please.
Ans: > 10 µM

----------
assayed_target: Alpha-1D adrenergic receptor (Homo sapiens, UniProt P25100)
Sequence (P25100 whole entry): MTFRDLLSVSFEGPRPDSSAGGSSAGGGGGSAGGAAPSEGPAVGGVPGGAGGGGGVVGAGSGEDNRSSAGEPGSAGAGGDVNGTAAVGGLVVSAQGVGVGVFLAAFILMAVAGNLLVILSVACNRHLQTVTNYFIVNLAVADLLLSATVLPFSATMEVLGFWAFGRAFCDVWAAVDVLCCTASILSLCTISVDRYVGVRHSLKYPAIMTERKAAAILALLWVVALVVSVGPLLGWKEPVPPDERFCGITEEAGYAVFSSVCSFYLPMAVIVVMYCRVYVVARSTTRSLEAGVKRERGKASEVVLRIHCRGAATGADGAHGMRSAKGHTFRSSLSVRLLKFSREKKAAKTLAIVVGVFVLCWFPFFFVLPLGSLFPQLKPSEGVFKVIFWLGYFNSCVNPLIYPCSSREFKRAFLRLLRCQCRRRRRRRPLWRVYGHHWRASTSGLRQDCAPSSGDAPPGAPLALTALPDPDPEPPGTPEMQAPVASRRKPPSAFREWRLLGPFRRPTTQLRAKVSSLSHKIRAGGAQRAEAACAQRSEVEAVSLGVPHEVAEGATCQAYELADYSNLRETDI
assay_explanation: Binding affinity towards Alpha-1D adrenergic receptor
endpoint_name: Ki

Known results for compounds:
In [3]: df
Out[3]:
                                   compound  endpoint_name  reported_result
0  CC(C)(C)c1ccc(N2CCN(CCn3cnc4c5ccccc5nc-4c3O)CC2)cc1             Ki          > 10 µM
1  Cc1nc2c3ccccc3nc-2c(O)n1CCN1CCN2c3ccccc3OCC2C1 (stereo not drawn)             Ki          > 10 µM

Please find the next compound below.
Q: Would you kindly share the measured Ki for CC(C)c1ccc(N2CCN(CCn3cnc4c5ccccc5nc-4c3O)CC2)cc1 ?
Ans: > 10 µM
